Target: NEK2 kinase (Accession No. NP-002488) (Homo sapiens, UniProt P51955)
Construct: purchased ThermoFisher Scientific (Invitrogen)
Sequence (P51955 1-445): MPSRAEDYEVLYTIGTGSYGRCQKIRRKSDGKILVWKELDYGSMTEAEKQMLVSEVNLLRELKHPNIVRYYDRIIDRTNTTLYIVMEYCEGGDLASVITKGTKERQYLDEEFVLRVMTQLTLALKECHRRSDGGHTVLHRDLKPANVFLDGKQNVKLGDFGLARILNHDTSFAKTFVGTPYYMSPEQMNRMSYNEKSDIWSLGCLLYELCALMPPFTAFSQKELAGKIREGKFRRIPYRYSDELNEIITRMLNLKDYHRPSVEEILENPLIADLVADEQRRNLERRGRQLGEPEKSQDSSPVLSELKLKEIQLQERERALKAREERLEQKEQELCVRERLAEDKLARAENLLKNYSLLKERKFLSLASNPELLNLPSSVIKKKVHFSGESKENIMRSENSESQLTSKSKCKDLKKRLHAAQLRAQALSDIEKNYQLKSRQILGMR
Assay: HotSpot Kinase Assay, NEK2
Format: biochemical
Settings: HotSpot Kinase Assay; read-out: NEK2 IC50
molecules and their reported IC50

Study these solved cases before continuing.
- N#Cc1c(Nc2nc(Nc3ccc(CN4CCNCC4)cc3)ncc2Cl)cccc1OCc1ccccc1F: 5 to 15 nM
- N#Cc1c(Nc2nc(Nc3ccc(N4CCNCC4)cc3)ncc2Cl)cccc1OCc1c(F)cccc1F: 5 to 15 nM
- N#Cc1c(Nc2nc(Nc3ccc(N4CCN(CCO)CC4)cc3)ncc2Cl)cccc1OCc1ccccc1F: ≤ 5 nM
- COc1ccccc1COc1cccc(Nc2nc(Nc3ccc(N4CCNCC4)cc3)ncc2Cl)c1C#N: > 15 nM

Proceeding to the next molecule to report its IC50.
Task: Give the reported IC50 for CN1CCN(c2ccc(Nc3ncc(Cl)c(Nc4cccc(OCc5ccccc5F)c4C#N)n3)cc2)CC1 (system: NEK2 kinase (Accession No. NP-002488) (Homo sapiens, UniProt P51955)).
Output: ≤ 5 nM

----------
Biological target: NEK2 (Homo sapiens)
Construct: expressed in transfected cells; host or cells: HEK293
Sequence (P51955 1-445): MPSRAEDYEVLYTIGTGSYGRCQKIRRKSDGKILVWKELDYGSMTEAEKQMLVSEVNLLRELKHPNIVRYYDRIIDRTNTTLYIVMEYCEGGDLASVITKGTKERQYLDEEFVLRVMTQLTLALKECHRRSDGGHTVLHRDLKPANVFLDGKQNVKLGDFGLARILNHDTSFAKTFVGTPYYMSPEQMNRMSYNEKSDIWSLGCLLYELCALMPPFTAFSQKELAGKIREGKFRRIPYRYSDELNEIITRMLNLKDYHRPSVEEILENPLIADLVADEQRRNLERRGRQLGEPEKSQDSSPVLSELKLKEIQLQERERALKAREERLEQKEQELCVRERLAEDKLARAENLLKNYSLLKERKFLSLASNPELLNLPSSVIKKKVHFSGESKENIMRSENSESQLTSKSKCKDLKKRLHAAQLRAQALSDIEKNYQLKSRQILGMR
Test: NanoBRET Target Engagement Intracellular Kinase Assay for NEK2 in transfected HEK293 cells
Format: cell-based
Settings: NEK2 target engagement, read-out: NanoBRET IC50
metric: IC50

Study these solved cases before continuing.
- N#Cc1c(Nc2nc(Nc3cnn(C4CCNCC4)c3)ncc2Cl)cccc1OCc1ccccc1F [Compound 31]: > 150 nM
- N#Cc1c(Nc2nc(Nc3ccc(N4CCNCC4)cc3)ncc2Cl)cccc1OCc1cccc(F)c1 [Compound 14]: > 150 nM
- N#Cc1c(Nc2nc(Nc3ccc(C4CCNCC4)cc3)ncc2Cl)cccc1OCc1ccccc1F [Compound 27]: 50 to 150 nM
- COc1cc(N2CCNCC2)ccc1Nc1ncc(Cl)c(Nc2cccc(OCc3ccccc3F)c2C#N)n1 [Compound 7]: > 150 nM
- N#Cc1c(Nc2nc(Nc3ccc(N4CCNCC4)nc3)ncc2Cl)cccc1OCc1ccccc1F [Compound 8]: > 150 nM
- N#Cc1c(Nc2nc(Nc3ccc(N4CCOCC4)cc3)ncc2Cl)cccc1OCc1ccccc1F [Compound 2]: > 150 nM
- N#Cc1c(Nc2nc(Nc3ccc(C(=O)N4CCNCC4)cc3)ncc2Cl)cccc1OCc1ccccc1F [Compound 6]: > 150 nM
- COc1ccccc1COc1cccc(Nc2nc(Nc3ccc(N4CCNCC4)cc3)ncc2Cl)c1C#N [Compound 11]: > 150 nM
- N#Cc1c(Nc2nc(Nc3ccc(CN4CCNCC4)cc3)ncc2Cl)cccc1OCc1ccccc1F [Compound 15]: > 150 nM
- COc1cc(Nc2ncc(Cl)c(Nc3cccc(OCc4ccccc4F)c3C#N)n2)ccc1N1CCNCC1 [Compound 9]: ≤ 50 nM

Proceeding to the next compound to report its IC50.
Task: Name the reported IC50 value associated with the compound N#Cc1c(Nc2nc(Nc3ccc(N4CCN(CCO)CC4)cc3)ncc2Cl)cccc1OCc1ccccc1F [Compound 17]
Output: 50 to 150 nM

----------
Target: NEK2 (Homo sapiens, UniProt P51955)
Construct: expressed in transfected cells; host or cells: HEK293
Assay: NanoBRET Target Engagement Intracellular Kinase Assay for NEK2 in transfected HEK293 cells
Format: cell-based
Settings: NEK2 target engagement, read-out: NanoBRET IC50
molecules and their reported IC50

Study these solved cases before continuing.
* N#Cc1c(Nc2nc(Nc3ccc(N4CCNCC4)cc3)ncc2Cl)cccc1OCc1c(F)cccc1F | ≤ 0.05 µM
* N#Cc1c(Nc2nc(Nc3ccc(CN4CCOCC4)cc3)ncc2Cl)cccc1OCc1ccccc1F | ≤ 0.05 µM
* C[C@@H](Oc1cccc(Nc2nc(Nc3ccc(N4CCN(C)CC4)cc3)ncc2Cl)c1C#N)c1ccccc1F | > 0.15 µM

Proceeding to the next molecule to report its IC50.
Task: Give the reported IC50 for N#Cc1c(Nc2nc(Nc3ccc(N4CCNCC4)cc3)ncc2Cl)cccc1OCc1ccc(F)cc1 (system: NEK2 (Homo sapiens, UniProt P51955)).
Output: > 0.15 µM

----------
Target: NEK2 kinase (Accession No. NP-002488) (Homo sapiens)
Construct: purchased ThermoFisher Scientific (Invitrogen)
Assay: HotSpot Kinase Assay, NEK2
Type: biochemical
Conditions: HotSpot Kinase Assay; read-out: NEK2 IC50
metric: IC50

Study these solved cases before continuing.
* C[C@H](Oc1cccc(Nc2nc(Nc3ccc(N4CCN(C)CC4)cc3)ncc2Cl)c1C#N)c1ccccc1F | ≤ 5 nM
* N#Cc1c(Nc2nc(Nc3ccc(N4CCNCC4)cc3)ncc2Cl)cccc1OCc1ccccc1F | ≤ 5 nM
* N#Cc1c(Nc2nc(Nc3ccc(N4CCOCC4)cc3)ncc2Cl)cccc1OCc1ccccc1F | ≤ 5 nM

Task: Name the reported IC50 value associated with the molecule CN(C)CCn1cc(Nc2ncc(Cl)c(Nc3cccc(OCc4ccccc4F)c3C#N)n2)cn1
Output: > 15 nM

----------
Biological target: Aurora A kinase (Accession No. NP-940839) (Homo sapiens, UniProt O14965)
Construct: purchased ThermoFisher Scientific (Invitrogen)
Sequence (O14965 whole entry): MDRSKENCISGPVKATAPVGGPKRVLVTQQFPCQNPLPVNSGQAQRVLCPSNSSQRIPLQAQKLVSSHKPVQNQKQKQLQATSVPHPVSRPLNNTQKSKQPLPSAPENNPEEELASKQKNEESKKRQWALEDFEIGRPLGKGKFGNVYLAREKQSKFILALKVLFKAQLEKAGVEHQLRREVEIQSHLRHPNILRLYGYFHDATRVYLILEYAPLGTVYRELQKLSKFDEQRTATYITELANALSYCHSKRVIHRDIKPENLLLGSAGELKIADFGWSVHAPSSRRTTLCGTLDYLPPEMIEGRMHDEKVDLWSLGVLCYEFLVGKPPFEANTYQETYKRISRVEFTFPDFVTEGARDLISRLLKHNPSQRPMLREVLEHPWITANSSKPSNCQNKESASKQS
Assay: HotSpot Kinase Assay, Aurora A
Format: biochemical
Conditions: HotSpot Kinase Assay; read-out: Aurora A IC50
Procedure: In this example, the compounds described herein were tested for their inhibitory activity against NEK2 and/or Aurora A using the HotSpot™ Kinase Assay (Reaction Biology Corp.). […] The substrate was prepared in freshly prepared Reaction Buffer. […] Radioactivity was then detected by the filter-binding method. Kinase activity data were expressed as the percent remaining kinase activity in test samples compared to vehicle (dimethyl sulfoxide) reactions. […]
pIC50: −log10 of the molar value.
metric: pIC50

Task: Name the reported pIC50 value associated with the compound COc1cnc(Nc2ccc(N3CCNCC3)cc2)nc1Nc1cccc(OCc2ccccc2F)c1C#N [Compound 10]
Output: < 6.00

Task: Name the reported pIC50 value associated with the compound N#Cc1c(Nc2nc(Nc3ccc(N4CCOCC4)cc3)ncc2Cl)cccc1OCc1ccccc1F [Compound 2]
Output: < 6.00

Task: Name the reported pIC50 value associated with the compound CN(C)CCn1cc(Nc2ncc(Cl)c(Nc3cccc(OCc4ccccc4F)c3C#N)n2)cn1 [Compound 32]
Output: < 6.00

----------
Biological target: NEK2 kinase (Accession No. NP-002488) (Homo sapiens, UniProt P51955)
Construct: purchased ThermoFisher Scientific (Invitrogen)
Test: HotSpot Kinase Assay, NEK2
Format: biochemical
Conditions: comparator compounds; read-out: NEK2 Activity HotSpot Assay
metric: IC50

• CN1CCN(c2ccc(Nc3ncc(Cl)c(Nc4ccc(C#N)c(OCc5ccccc5F)c4)n3)cc2)CC1 [CF-02, reference compound] = 264 nM

Proceeding to the next compound to report its IC50.
Task: Give the reported IC50 for CN1CCN(Cc2ccc(Nc3ncc(Cl)c(Nc4ccc(C#N)c(OCc5ccccc5F)c4)n3)cc2)CC1 [CF-01, reference compound] (system: NEK2 kinase (Accession No. NP-002488) (Homo sapiens, UniProt P51955)).
Output: > 1000 nM

----------
Target: NEK2 (Homo sapiens)
Construct: expressed in transfected cells; host or cells: HEK293
Assay: NanoBRET Target Engagement Intracellular Kinase Assay for NEK2 in transfected HEK293 cells
Type: cell-based
Conditions: NEK2 target engagement, read-out: NanoBRET IC50
metric: IC50

• N#Cc1c(Nc2nc(Nc3ccc(N4CCNCC4)cc3)ncc2Cl)cccc1OCc1ccccc1F [Compound 16] = ≤ 50 nM
• C[C@H](Oc1cccc(Nc2nc(Nc3ccc(N4CCN(C)CC4)cc3)ncc2Cl)c1C#N)c1ccccc1F [Compound 3] = ≤ 50 nM

Task: Name the reported IC50 value associated with the compound CN1CCN(c2ccc(Nc3ncc(Cl)c(Nc4cccc(OCc5ccccc5F)c4C#N)n3)cc2)CC1 [Compound 18]
Output: 50 to 150 nM

Task: Name the reported IC50 value associated with the compound COc1cnc(Nc2ccc(N3CCNCC3)cc2)nc1Nc1cccc(OCc2ccccc2F)c1C#N [Compound 10]
Output: 50 to 150 nM

Task: Name the reported IC50 value associated with the compound Cc1cnc(Nc2ccc(N3CCNCC3)cc2)nc1Nc1cccc(OCc2ccccc2F)c1C#N [Compound 12]
Output: ≤ 50 nM
